testedSystem: Hexose transporter 1 (Plasmodium falciparum) (UniProt O97467)
assayMethodText: ST_JUDE_LEISH: Cytotoxicity at 2uM final concentration against transgenic Leishmania Mexicana promastigotes LmPfHT that are glucose transport deficient and complemented with the Plasmodium falciparum hexose transporter. Activity is measured by DNA content using SYBR green in vitro
Type: functional
quantity: inhibition (%)
One number for each entry, in %.

Report inhibition for CN1CC=C(C=Cc2c[nH]c3ccccc23)CC1
2.14

Report inhibition for CC(Cc1ccc(OCc2ccccc2)cc1)NCC(O)c1cccc(Cl)c1 (stereo not given)
3.61

Look up inhibition for the entries below, preserving their order.
1. S=C(NCC1CCCCC1)NC1CCC(CN2CCC(c3c[nH]c4ccccc34)CC2)CC1 (stereo not given)
2. CC(=O)N(Cc1cccc(-c2ccc(CNCCc3ccccc3)cc2)c1)C1CCN(Cc2ccccc2)CC1
3. CCCc1c(C(=O)NC2CCC(CN3CCC(c4c[nH]c5ccccc45)CC3)CC2)cnn1-c1ccc(Cl)cc1 (stereo not given)

1. 3.66
2. 5.39
3. -1.46

* * *

testedSystem: Hexose transporter 1 (Plasmodium falciparum) (UniProt O97467)
assayMethodText: ST_JUDE_LEISH: Cytotoxicity at 2uM final concentration against transgenic Leishmania Mexicana promastigotes LmPfHT that are glucose transport deficient and complemented with the Plasmodium falciparum hexose transporter. Activity is measured by DNA content using SYBR green in vitro
Type: functional
quantity: inhibition (%)
Numbers only, in %.

Worked cases, inhibition given:
Report inhibition on Hexose transporter 1 (Plasmodium falciparum) (UniProt O97467) for this entry: O=C1c2ccccc2CCC1CCN1CC=C(c2c[nH]c3ccccc23)CC1 (centres undefined)
3.52

Report inhibition on Hexose transporter 1 (Plasmodium falciparum) (UniProt O97467) for this entry: Cc1ccc(CC(C)NCC(O)c2cccc([N+](=O)[O-])c2)cc1 (centres undefined)
-0.33

Report inhibition on Hexose transporter 1 (Plasmodium falciparum) (UniProt O97467) for this entry: COc1c(F)cc(CC(C)NCC(O)c2cccc(Cl)c2)cc1F (centres undefined)
-0.81

Report inhibition on Hexose transporter 1 (Plasmodium falciparum) (UniProt O97467) for this entry: Oc1ccccc1CNCC(O)c1cccc(C(F)(F)F)c1 (centres undefined)
-1.26

Report inhibition on Hexose transporter 1 (Plasmodium falciparum) (UniProt O97467) for this entry: O=C(NC1CCC(CN2CCC(c3c[nH]c4ccccc34)CC2)CC1)[C@H]1Cc2ccccc2CN1 (some centres undefined)
2.41

Report inhibition on Hexose transporter 1 (Plasmodium falciparum) (UniProt O97467) for this entry: CNCCCCCCOc1ccc(CC(C)NCC(O)c2cccc(C(F)(F)F)c2)cc1 (centres undefined)
2.66

Report inhibition on Hexose transporter 1 (Plasmodium falciparum) (UniProt O97467) for this entry: COc1cc(NC(=O)c2nn(CCCN3CCC4(CC3)C(=O)NCN4c3ccccc3)cc2-c2ccc(Cl)c(Cl)c2)cc(OC)c1OC
8.62

Report inhibition on Hexose transporter 1 (Plasmodium falciparum) (UniProt O97467) for this entry: O=C(NC1CCC(CN2CCC(c3c[nH]c4ccccc34)CC2)CC1)c1cc(-c2ccccc2Cl)n(-c2cccc(Cl)c2)n1 (centres undefined)
2.86

Look up inhibition for the entries below, preserving their order.
1. CCCCOC(C(=O)OCC1CCCN1C)(c1ccccc1)c1ccccc1 (centres undefined)
2. CCCCC1(NC(=O)[C@H](CC(C)C)Nc2ccc(C#N)c3ccccc23)CCCCC1
3. O=C(NCC(=O)N1CCC[C@H]1C(=O)O)[C@@H](Cc1ccccc1)NC(=O)[C@@H]1CCCN1C(=O)CCCc1ccc(O)cc1
4. CC[C@H]1CN2CC[C@H]1C[C@H]2[C@H](O)c1cc(-c2ccccc2C)nc2ccc(OC)cc12
5. O=C(/C=C/c1ccc(F)c(C(F)(F)F)c1)N1CCC(CN2CCC(c3c[nH]c4ccccc34)CC2)CC1
6. CC[C@H]1CN2CC[C@H]1C[C@H]2[C@H](O)c1cc(N2CCCC(C(=O)N(CC)CC)C2)nc2ccc(OC)cc12 (some centres undefined)
7. COc1cc(CC(C)NCC(O)c2cccc(C(F)(F)F)c2)ccc1OCc1ccccc1 (centres undefined)

1. 1.91
2. 4.9
3. -1.36
4. 0.37
5. 0.53
6. 2.21
7. 4.6

Look up inhibition for the entries below, preserving their order.
1. CN(c1cc(NC(=O)c2cccs2)ccn1)C1CCN(Cc2cccc(C#N)c2)CC1
2. CC(Cc1ccc(OCCOc2ccccc2)cc1)NCC(O)c1cccc(Cl)c1 (centres undefined)

1. 9.92
2. 1.43

These entries and their values trace back to ChEMBL document CHEMBL3433997.
